target under test: MettL5–Trm112 (Homo sapiens, UniProt Q9NRN9)
Sequence (Q9NRN9 whole entry): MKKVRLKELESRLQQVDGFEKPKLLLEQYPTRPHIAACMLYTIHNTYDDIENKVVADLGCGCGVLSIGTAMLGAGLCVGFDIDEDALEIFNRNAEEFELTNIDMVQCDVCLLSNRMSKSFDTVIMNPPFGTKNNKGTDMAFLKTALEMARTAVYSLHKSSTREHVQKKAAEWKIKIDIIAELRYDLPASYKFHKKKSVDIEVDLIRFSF
Sequence (Q9UI30 whole entry partner): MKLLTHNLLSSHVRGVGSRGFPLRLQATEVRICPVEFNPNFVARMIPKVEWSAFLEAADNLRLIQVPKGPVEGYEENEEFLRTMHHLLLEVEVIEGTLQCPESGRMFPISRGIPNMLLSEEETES
assay explanation: Compound selectivity assay
Assay type: biochemical
condition label: read-out: inhibition of MettL5–Trm112 activity
outcome measure: inhibition at 10 µM

Guide cases for inhibition at 10 µM, answers given:
>  <compound>
OC[C@H]1O[C@@H](n2cnc3c(NCCCc4ccccc4)ncnc32)[C@H](O)[C@@H]1O

>  <value>
≤ 50%

$$$$
>  <compound>
N=C(NCCCSC[C@H]1O[C@@H](n2cnc3c(N)ncnc32)[C@H](O)[C@@H]1O)NCC1CCCCC1

>  <value>
~50%

$$$$
>  <compound>
N=C(NCCSC[C@H]1O[C@@H](n2cnc3c(NCCCc4ccccc4)ncnc32)[C@H](O)[C@@H]1O)NCC1CCCCC1 [11a]

>  <value>
≤ 50%

$$$$

For the next question, use this compound.
QUERY: Please look up its inhibition at 10 µM: N=C(NCCCSC[C@H]1O[C@@H](n2cnc3c(NCCCc4ccccc4)ncnc32)[C@H](O)[C@@H]1O)NCC1CCCCC1 [11b]
RESULT: ~50%
